# assaySystem: GPIIb/IIIa (Homo sapiens, UniProt P05106+P08514)
# Sequence (P08514 32-887 limits assumed): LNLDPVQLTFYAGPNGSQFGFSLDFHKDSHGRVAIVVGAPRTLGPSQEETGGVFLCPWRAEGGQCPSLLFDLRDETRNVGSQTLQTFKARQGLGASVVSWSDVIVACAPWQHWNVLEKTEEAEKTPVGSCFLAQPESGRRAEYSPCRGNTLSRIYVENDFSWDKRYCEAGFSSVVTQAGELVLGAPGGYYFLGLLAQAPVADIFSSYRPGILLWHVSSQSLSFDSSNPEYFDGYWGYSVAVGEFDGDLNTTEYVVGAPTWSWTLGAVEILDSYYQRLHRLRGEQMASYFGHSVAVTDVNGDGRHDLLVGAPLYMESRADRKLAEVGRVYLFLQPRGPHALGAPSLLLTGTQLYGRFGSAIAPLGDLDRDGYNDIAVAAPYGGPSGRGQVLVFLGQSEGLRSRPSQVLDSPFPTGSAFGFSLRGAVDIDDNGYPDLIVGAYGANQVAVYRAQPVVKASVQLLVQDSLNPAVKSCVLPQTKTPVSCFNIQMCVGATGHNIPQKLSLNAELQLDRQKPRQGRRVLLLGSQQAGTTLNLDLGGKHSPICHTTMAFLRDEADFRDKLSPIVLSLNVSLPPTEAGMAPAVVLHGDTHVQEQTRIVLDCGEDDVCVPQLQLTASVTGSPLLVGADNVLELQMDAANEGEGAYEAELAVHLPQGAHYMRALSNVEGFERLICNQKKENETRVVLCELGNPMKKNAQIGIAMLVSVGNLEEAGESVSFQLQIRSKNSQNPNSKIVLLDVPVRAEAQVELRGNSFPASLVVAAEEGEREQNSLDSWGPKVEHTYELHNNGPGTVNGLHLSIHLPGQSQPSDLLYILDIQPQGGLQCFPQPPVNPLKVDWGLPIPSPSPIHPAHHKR
# Sequence (P08514 891-1039 partner limits assumed): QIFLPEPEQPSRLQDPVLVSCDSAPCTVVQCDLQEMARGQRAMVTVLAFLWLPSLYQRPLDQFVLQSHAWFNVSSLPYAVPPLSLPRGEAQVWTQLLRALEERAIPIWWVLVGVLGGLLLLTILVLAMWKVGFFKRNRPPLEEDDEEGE
# Sequence (P05106 27-788): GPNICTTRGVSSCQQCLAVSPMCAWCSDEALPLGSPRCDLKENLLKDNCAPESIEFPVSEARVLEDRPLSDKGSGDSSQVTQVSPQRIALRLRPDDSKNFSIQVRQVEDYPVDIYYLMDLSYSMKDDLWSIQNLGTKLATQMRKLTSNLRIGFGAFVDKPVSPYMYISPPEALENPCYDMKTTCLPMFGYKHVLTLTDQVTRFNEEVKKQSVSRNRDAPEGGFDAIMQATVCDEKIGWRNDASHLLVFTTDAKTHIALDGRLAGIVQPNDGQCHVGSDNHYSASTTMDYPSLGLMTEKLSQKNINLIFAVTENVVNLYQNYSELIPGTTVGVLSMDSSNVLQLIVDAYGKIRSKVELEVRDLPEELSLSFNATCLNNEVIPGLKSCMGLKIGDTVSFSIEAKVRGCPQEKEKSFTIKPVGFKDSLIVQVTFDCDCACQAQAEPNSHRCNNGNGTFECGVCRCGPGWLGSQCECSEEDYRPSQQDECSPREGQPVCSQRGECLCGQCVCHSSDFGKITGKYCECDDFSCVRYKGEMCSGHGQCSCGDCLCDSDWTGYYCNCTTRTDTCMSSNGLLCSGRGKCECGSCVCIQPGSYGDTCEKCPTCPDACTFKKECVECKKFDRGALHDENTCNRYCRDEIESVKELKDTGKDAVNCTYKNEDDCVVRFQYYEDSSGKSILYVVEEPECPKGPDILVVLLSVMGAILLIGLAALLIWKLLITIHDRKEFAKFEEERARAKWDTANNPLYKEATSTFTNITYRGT
# experimentalDetails: In vitro solid phase purified glycoprotein IIb/IIIa binding assay (biotinylated fibrinogen binding)
# appliedConditions: read-out: Fibrinogen Binding % Inh. (50 µM)
measure: inhibition at 50 µM (%)
Give the quantity in %, number only.

Use the examples below as a reference point.
For the compound O=C(O)CC(NC(=O)C1CCCN(C(=O)CCC2CCNCC2)C1)c1ccccc1 (centres unmarked) , report inhibition at 50 µM.
95

For the compound O=C(O)CC(NC(=O)C1CCCN(C(=O)CCC2CCNCC2)C1)c1ccc2c(c1)OCO2 (centres unmarked) , report inhibition at 50 µM.
100

---
For the compound O=C(N[C@@H](CNC(=O)[C@@H]1CCCN(C(=O)CCC2CCNCC2)C1)C(=O)O)OCc1ccccc1 , report inhibition at 50 µM.
100

For the compound CC(C)(C)C#CC(CC(=O)O)NC(=O)C1CCCN(C(=O)CCC2CCNCC2)C1 (single isomer, unassigned) , report inhibition at 50 µM.
99

For the compound O=C(O)CCNC(=O)C1CCCN(S(=O)(=O)CCC2CCNCC2)C1 (centres unmarked) , report inhibition at 50 µM.
97

Hey, just so you know, these numbers are from patent EP1184374A1.
